- System Name: Schistosoma mansoni thioredoxin glutathione reductase (TGR) (UniProt Q962Y6)
- Assay Summary: qHTS Assay for the Inhibitors of Schistosoma Mansoni Peroxiredoxins; also: nearly all actives have a fitted effect of over 60% in size
- Applied Conditions: purified TGR, DTNB reduction, TNB absorbance 405 nm; series mostly up to 114 µM
In all, about 360,000 compounds went through this assay and about 11,000 (3.1%) were called active. Inconclusive results (about 4%) are left out. Calls follow the shape of the dose curve; as a rule, active = well fitted inhibition curve with a large enough effect; inconclusive = small, poorly fitted or top-dose-only effect; inactive = no such curve, though single readings can be large or run the other way. The entries come from a sample that favours actives as a whole.
Outcome codes: yes = active, no = inactive

Compound | Label Value
CCc1nc2cccnc2n1-c1ccc(CC(=O)Nc2c(C)cccc2C)cc1 | no
CC(/C=C/C1(O)C(C)CC(=O)CC1(C)C)OC1OC(CO)C(O)C(O)C1O (centres undefined) | yes
CC(C)(C)c1ccc(C(=O)NCC(c2ccco2)S(=O)(=O)c2ccc(F)cc2)cc1 (centres undefined) | yes
CCCn1ccc2c(OCC(=O)NCc3ccc(F)cc3)cccc2c1=O | no
Cc1cccn2c(=O)c(C(=O)NC(C)c3ccccc3)cnc12 (centres undefined) | no
CC(=O)c1nn(-c2ccc(OC(F)(F)F)cc2)nc1Nc1ccccc1 | no
CCOc1ccc(OCC)c(NS(=O)(=O)c2ccc3[nH]c(=O)ccc3c2)c1 | no
O=C(CSc1nc(-c2ccco2)cc(C(F)(F)F)n1)N1CCc2ccccc2C1 | yes
CCOc1ccc(CNCCSc2nnnn2C)cc1 | no
NC(=O)C1=C[C@H](c2csc3ccccc23)C[C@H](OCc2ccc(CO)cc2)O1 | no
CCC(=O)N1c2ccccc2CC1C(=O)N1CCN(c2ccccc2)CC1 (centres undefined) | no
O=C(NCc1ccccc1Cl)c1cccn1-c1nnc(N2CCCCC2)s1 | no
COc1ccc2c(CNCCc3ccccc3C)c(C(=O)O)n(Cc3ccccc3C)c2c1 | no
COCCCNC(=O)Cc1ccc(-n2c(C)nc3cccnc32)cc1 | no
COc1cccc2c1cc1c(=O)n(CC(=O)N3CCN(c4cccc(Cl)c4)CC3)nc(C)n12 | no
COc1ccccc1N(C(=O)Cn1nnc2ccccc21)C(C(=O)NCc1ccco1)c1ccc(C)o1 (centres undefined) | yes
Cc1ccc2cccc(NC(=O)c3cccc4ccccc34)c2n1 | no
COc1cc(CN(CC2CCCO2)C(=O)c2ccccc2F)cc(OC)c1OC (centres undefined) | no
O=C(CCNC(=O)c1ccc(Br)cc1)NCC(c1ccco1)N1CCCCC1 (centres undefined) | no
CCCCOc1ccc(C(=O)N2CC(=O)Nc3ccc(Br)cc3C2c2ccc(F)cc2)cc1 (centres undefined) | no
CN1CCN(C(=O)C2=C[C@H](c3ccc4c(c3)OCO4)C[C@H](OCc3ccc(CO)cc3)O2)CC1 | no
CN(C)c1ccc(NC(=O)CSc2nc(-c3ccco3)cc(C(F)(F)F)n2)cc1 | no
CCOC(=O)c1c(C(C#N)C#N)cc(C)nc1C | no
O=C1c2cccc(OCC(=O)N3N=C(c4cccs4)CC3c3ccc(F)cc3)c2CCN1Cc1ccccc1 (centres undefined) | no
CCCCSc1ncnc2c1sc1nc(N3CCOCC3)c3c(c12)CCCC3 | no
COc1cccc(-c2nc3n(n2)C(c2ccccc2Cl)C(C(N)=O)=C(C)N3)c1 (centres undefined) | no
O=C(CSCc1cnn(-c2ccccc2)c1-n1cccc1)NCc1ccc(Cl)cc1 | no
O=C(COc1ccccc1Cl)N1N=C(c2cccs2)CC1c1ccco1 (centres undefined) | yes
COc1cccc(CNC(=O)CCc2nc(-c3ccc(C)cc3)no2)c1 | no

Provenance of the data: PubChem BioAssay AID485364
